// values below are reported Kd
# target_under_test: (NVDP)3(NANP)2 (Plasmodium falciparum)
# method: BLI, target on sensor
reported_endpoint: Kd (nM)

binder	reported_endpoint	unit_text	recorded_value
AB-007073 (antibody, V domains shown) VH: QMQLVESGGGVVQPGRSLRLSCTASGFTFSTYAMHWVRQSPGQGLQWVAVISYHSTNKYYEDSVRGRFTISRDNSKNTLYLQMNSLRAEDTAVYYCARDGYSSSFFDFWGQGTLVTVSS VL: DIQMTQSPSTLSASVGDRVAITCRASQSISRWLAWYQQQPGKAPKLLMSGASVLESGVPSRFSGSGSGTEFTLTISSLQPDDFATYYCQHYNSHFVTFGQGTKVEIK	Kd	nM	18.1
AB-007066 (antibody, V domains shown) VH: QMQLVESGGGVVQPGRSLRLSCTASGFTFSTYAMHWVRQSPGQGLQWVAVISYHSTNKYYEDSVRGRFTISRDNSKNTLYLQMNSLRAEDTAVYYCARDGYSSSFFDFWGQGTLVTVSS VL: DIQMTQSPSTLSASVGDRVAITCRASQSISRWLAWYQQQPGKAPKLLMSQASVLESGVPSRFSGSGSGTEFTLTISSLQPDDFATYYCQHYNSYFVTFGQGTKVEIK	Kd	nM	22.4
AB-007063 (antibody, V domains shown) VH: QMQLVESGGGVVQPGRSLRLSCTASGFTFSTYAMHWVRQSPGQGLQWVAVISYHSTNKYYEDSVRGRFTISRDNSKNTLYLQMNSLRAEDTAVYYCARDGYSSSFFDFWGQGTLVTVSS VL: DIQMTQSPSTLSASVGDRVAITCRASQSISRWLAWYQQQPGKAPKLLMAGASVLESGVPSRFSGSGSGTEFTLTISSLQPDDFATYYCQHYNSYFVTFGQGTKVEIK	Kd	nM	9.73

Hey, just so you know, these numbers are from patent US20220195023A1.
